The values you see were collected from patent US20080076751A1.

Target: human-SP9215 (GPR119) (Homo sapiens)
Sequence (Q8TDV5 1-335): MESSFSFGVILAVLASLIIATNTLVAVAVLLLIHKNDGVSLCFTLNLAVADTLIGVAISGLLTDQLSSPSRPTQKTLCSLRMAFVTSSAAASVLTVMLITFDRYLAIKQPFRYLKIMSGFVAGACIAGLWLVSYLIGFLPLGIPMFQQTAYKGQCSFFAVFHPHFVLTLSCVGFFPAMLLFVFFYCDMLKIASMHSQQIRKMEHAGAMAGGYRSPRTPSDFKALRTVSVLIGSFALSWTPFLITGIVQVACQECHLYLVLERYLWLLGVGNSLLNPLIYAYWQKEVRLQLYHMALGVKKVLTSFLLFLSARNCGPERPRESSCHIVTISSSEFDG
Test: GPR119 screening assay (LANCE cAMP, HEK 293 Human clone 3)
Conditions: HEK 293 Human clone 3, LANCE cAMP; read-out: GPR119 cAMP IC5O
READOUT TYPE: pIC50
Formally, pIC50 is defined as -log10 of the concentration c, with c in mol/L.

Known pIC50 results, listed for orientation:
[[record]]
compound = "O=C(c1ccc2c(c1)OCCCO2)N1CCC2(CC1)C(=O)N(c1ccc(C(F)(F)F)cc1)C2c1ccc(Cl)cc1 (stereo not shown)"
recorded_result = 5.35

[[record]]
compound = "COC(=O)c1ccc(N2C(=O)C3(CCN(C(=O)c4cc(OC)c(OC)c(OC)c4)CC3)C2c2ccc(Cl)cc2)cc1 (stereo not shown)"
recorded_result = 5.57

[[record]]
compound = "COc1cccc(N2C(=O)C3(CCN(C(=O)c4cc(OC)c(OC)c(OC)c4)CC3)C2c2ccc(Cl)cc2)c1 (stereo not shown)"
recorded_result = 5.42

[[record]]
compound = "CC(C)OC(=O)N1CCC2(CC1)C(=O)N(C(c1ccccc1)c1ccccc1)C2c1ccccc1 (stereo not shown)"
recorded_result = 5.70

[[record]]
compound = "O=C(c1ccc2c(c1)OCCCO2)N1CCC2(CC1)C(=O)N(c1ccc([N+](=O)O)cc1)C2c1ccc(Cl)cc1 (stereo not shown)"
recorded_result = 5.38

[[record]]
compound = "COc1cc(C(=O)N2CCC3(CC2)C(=O)N(c2ccc(F)cc2)C3c2ccc(Cl)cc2)cc(OC)c1OC (stereo not shown)"
recorded_result = 5.36


Asked: For C[C@H](NC(=O)N1CCC2(CC1)C(=O)N(c1ccc(F)cc1)C2c1ccc(F)cc1)c1ccccc1 (stereo partly shown) , what is its reported pIC50?
Given back: 5.33

Asked: So what's the measured pIC50 for this one? COC(=O)c1ccc(N2C(=O)C3(CCN(C(=O)c4ccc5c(c4)OCCCO5)CC3)C2c2ccc(Cl)cc2)cc1 (stereo not shown)
Given back: 6.00

Asked: Using the record for COc1cc(C(=O)N2CCC3(CC2)C(=O)N(c2cccc(C(F)(F)F)c2)C3c2ccc(Cl)cc2)cc(OC)c1OC (stereo not shown) , report its pIC50.
Given back: 5.36

Asked: Query: pIC50; subject: N#Cc1ccc(N2C(=O)C3(CCN(C(=O)c4ccc5c(c4)OCCCO5)CC3)C2c2ccc(Cl)cc2)cc1 (stereo not shown)
Given back: 5.64
